Target: Oatp1b2 (Mus musculus)
Sequence (Q9JJL3 1-689): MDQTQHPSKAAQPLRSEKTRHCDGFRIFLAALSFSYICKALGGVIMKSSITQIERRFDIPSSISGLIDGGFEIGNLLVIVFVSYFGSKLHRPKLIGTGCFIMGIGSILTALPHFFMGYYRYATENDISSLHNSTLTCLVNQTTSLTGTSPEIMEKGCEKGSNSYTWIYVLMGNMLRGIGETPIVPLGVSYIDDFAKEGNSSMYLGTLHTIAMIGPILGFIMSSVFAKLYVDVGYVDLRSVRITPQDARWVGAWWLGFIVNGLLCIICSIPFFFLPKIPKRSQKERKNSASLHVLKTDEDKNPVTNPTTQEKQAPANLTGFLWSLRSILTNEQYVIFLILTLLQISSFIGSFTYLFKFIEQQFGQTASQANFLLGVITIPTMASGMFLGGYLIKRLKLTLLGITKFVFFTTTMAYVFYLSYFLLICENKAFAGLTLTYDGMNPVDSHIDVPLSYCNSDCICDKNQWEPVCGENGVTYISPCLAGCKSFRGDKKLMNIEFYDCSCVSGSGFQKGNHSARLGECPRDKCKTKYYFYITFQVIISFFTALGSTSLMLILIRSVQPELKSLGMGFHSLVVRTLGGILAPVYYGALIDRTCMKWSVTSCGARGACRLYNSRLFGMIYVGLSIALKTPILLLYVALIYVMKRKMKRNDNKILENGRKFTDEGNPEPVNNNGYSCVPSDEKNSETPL
Test: Untargeted metabolomics of plasma from untreated wild-type and Oatp1b2(−/−) mice
Details: plasma of untreated wild-type mice; raw area counts rescaled to median = 1
Property Label: Mean value WT

// known answers, use as guide
{"Compound": "CCCCCCCC/C=C\\CCCCCCCC(=O)O[C@H](COC(=O)CCCCCCCCCCCCCCC)COP(=O)([O-])OCC[N+](C)(C)C [1-palmitoyl-2-oleoyl-GPC (16:0/18:1)]", "Result": ".834"}
{"Compound": "CCCC(=O)NCC(=O)O [butyrylglycine]", "Result": ".744"}
{"Compound": "C[N+](C)(C)CC(CC(=O)[O-])OC(=O)CCCCCCCCCCCCCCCCC(=O)O (stereo not shown) [octadecanedioylcarnitine (C18-DC)]", "Result": ".860"}

Okay, next one:
Enter reported Mean value WT observed with Oatp1b2 (Mus musculus) for CCCCCCCCCCCCCC/C=C\OC[C@@H](O)COP(=O)(O)OCCN [1-(1-enyl-palmitoyl)-GPE (P-16:0)]
.725
